System: SW-620
Experiment: NCI tumour cell line growth inhibition, 48 h
Active and inactive are the calls of the source. Cut-off read from the data, not from the text of the source: active = GI50 up to about 1.1 µM and inactive = higher.
Your reply should match one of these outcome classes. YES = active, NO = inactive

[in] Returns: the outcome recorded for C[N+]1(CCN=C=NC2CCCCC2)CCOCC1 in this assay.
[out] NO

[in] Please let me know the test result on file for O=C(O)C(O)C(O)C(O)C(=O)CO (stereo not given) .
[out] NO

[in] Assay result, entry CC(C)(C)c1ccccc1N1C(=O)c2ccc3c4c(ccc(c24)C1=O)N(c1ccccc1C(C)(C)C)C3=O — outcome?
[out] NO

[in] I'd appreciate the recorded outcome for COc1ccc(C(=O)O/N=C2\CCCC\C2=C/c2ccccc2)cc1 from this test.
[out] NO

[in] I would be grateful if you could indicate the recorded call for CC1=NNC(=O)[C@H]2[C@H]1CCC1[C@@H]2CC[C@]2(C)[C@@H](O)CC[C@@H]12 (stereo not given in full) .
[out] NO

[in] What classification did Cc1cc(NCCCCCCNc2cc(C)nc3cc(N(C)C)ccc23)c2ccc(N(C)C)cc2n1 end up with in this test?
[out] NO

[in] Per the records of this test, what outcome belongs to Nc1nc(=O)c2c([nH]1)NCC(CNc1ccc(C(=O)N[C@@H](CCC(=O)O)C(=O)O)cc1)N2C=O (stereo not given in full) ?
[out] NO
